Measurement Description: NCI Yeast Anticancer Drug Screen. Data for the mlh1 rad18 strain (AID 175)
Run Parameters: S. cerevisiae mlh1 rad18 strain growth inhibition; at 50.0 µM; stronger effect = higher value
Compounds without any hit were thinned out: in the full panel of roughly 79,000, 15% have a hit.
Listing of recorded growth inhibition by entry.
Outcome Measure: growth inhibition (%)

>>> measured_number("O=C(Oc1c(Br)cc(Br)cc1C(=O)Oc1ccccc1)C(=O)Oc1c(Br)cc(Br)cc1C(=O)Oc1ccccc1")
32.6
>>> measured_number("NC(=O)COc1ccc(Br)cc1Br")
11.8
>>> measured_number("C#[N+]CCOP(=O)(OCC1OC(n2cc(C)c(=O)[nH]c2=O)CC1N=[N+]=[N-])O[C@H]1CC[C@@]2(C)C(=CC[C@H]3[C@@H]4CC[C@H](C(C)/C=C/C(CC)C(C)C)[C@@]4(C)CC[C@@H]32)C1 (stereo partly drawn)")
-19.1
>>> measured_number("NCCOc1ccccn1")
-1.9
>>> measured_number("CN(C)[C@@H]1C(=O)C(C(=O)NCNc2cccc(C(=O)O)c2C(=O)O)=C(O)[C@@]2(O)C(=O)C3=C(O)c4c(O)cccc4[C@@](C)(O)[C@H]3C[C@@H]12")
31.4
>>> measured_number("COc1ccc(OC)c(C#N)c1C#N (tested in a mixture with another compound)")
-6.75
>>> measured_number("CC(=O)OC1COC(n2cnc3c(N)ncnc32)C(OC(C)=O)C1OC(C)=O (stereo not drawn)")
-4.2
>>> measured_number("NC(=O)N/N=C1\\CC2CC1C1CCCC21 (stereo not drawn)")
15.3

====

Measurement Description: NCI Yeast Anticancer Drug Screen. Data for the mec2-1 strain (AID 157)
Run Parameters: S. cerevisiae mec2-1 strain, at 50.0 µM, stronger effect = higher value
Compounds without any hit were thinned out: in the full panel of roughly 79,000, 15% have a hit.
Outcome Measure: growth inhibition (%)

>>> measured_number("CCC(CC(N)=O)C(C#N)(C#N)C(N)=O (stereo unspecified)")
5.05
>>> measured_number("COC(=O)c1cc(C(=O)OC)c(C/C(=N/NC(=O)C[N+](C)(C)C)C(=O)Nc2cccc(C(F)(F)F)c2)nc1C/C(=N/NC(=O)C[N+](C)(C)C)C(=O)Nc1cccc(C(F)(F)F)c1")
-1.45
>>> measured_number("CC1CC(C)OC(c2ccco2)O1 (stereo unspecified)")
-20.6
>>> measured_number("CCOC(=O)C1(C)CCCc2sc(N)c(C#N)c21 (stereo unspecified)")
-7.55
>>> measured_number("Cc1ccc(C)c(NS(=O)(=O)c2ccc(Cl)c([N+](=O)[O-])c2)c1")
98.2
>>> measured_number("O=C(O)Cn1cnc2c(=O)[nH]c(Nc3ccccc3)nc21")
9.1
>>> measured_number("COc1nc(Cl)nc(C(N)=O)c1N")
9.9
>>> measured_number("CC1CC(C)(C)NC(c2ccccc2)O1 (stereo unspecified)")
-5
>>> measured_number("CC(=O)OCC1(C)NC(=O)c2ccccc2O1 (stereo unspecified)")
20.2
>>> measured_number("O=C1CCSSCCC(=O)Nc2ccccc2N1")
-42.5
>>> measured_number("CC(=O)NC(C=O)C(O)C(O)C(O)C(=O)O (stereo unspecified)")
-11.4

====

Listing of recorded growth inhibition by entry.
Measurement Description: NCI Yeast Anticancer Drug Screen. Data for the mec2-1 strain (AID 157)
Run Parameters: S. cerevisiae mec2-1 strain, at 50.0 µM, stronger effect = higher value
About 79,000 compounds went through this panel and 15% of them were active in at least one assay; those are over-represented in the sample as a whole.
Outcome Measure: growth inhibition (%)

>>> measured_number("CC1CC(=O)c2cc3oc(=O)n(C)c3cc21 (stereo not drawn)")
-4.15
>>> measured_number("Cc1cc2nnc(-c3cccc([N+](=O)[O-])c3)n2c2nnnn12")
31.1
>>> measured_number("Cn1nc(C(=O)NN)c(=O)[nH]c1=O")
-6.75
>>> measured_number("O=C(NC(=O)c1c(F)cccc1F)Nc1ccc(Br)cc1")
53.3
>>> measured_number("C/C(=N\\NC(=O)c1cc(C)nc2ccc(Br)cc12)c1ccccc1O")
63
>>> measured_number("Cc1ccc(S(=O)(=O)/C(C#N)=C\\N2CCNC2=S)cc1")
-24.3
>>> measured_number("CCCCCCCCCc1cc[n+](C2=C([O-])C3=C(C(=O)C2=O)C2c4ccccc4C3c3ccccc32)cc1")
50.6
>>> measured_number("CCCCCCCCCCCCCCCc1ccc([N+](=O)[O-])c(O)c1")
33.5
>>> measured_number("CCOc1ccc(NC(=O)c2c(N/N=C/c3ccc(OC)cc3)nc(=O)[nH]c2C)cc1")
-31.5
>>> measured_number("CSC(=S)/C(=C/Nc1ccccn1)c1ccccc1")
14.5
>>> measured_number("CC1(C)CC(Nc2ccc(Nc3ccccc3)cc2)CC(C)(C)N1")
-6.3
>>> measured_number("Cc1ccc(/C=C/C(=N/Nc2ccccc2)C(C)CN(C)C)cc1 (stereo not drawn)")
-10.1
>>> measured_number("OC1Cn2cc(Br)c[n+]2C1 (stereo not drawn)")
-5.5
>>> measured_number("CCOC(=O)C(=[N+]=[N-])C(=O)CN1C(=O)C2CC(C)=C(C)CC2C1O (stereo not drawn)")
1.15
>>> measured_number("O=[N+]([O-])c1ccc2c(Cl)[nH]nc2c1")
27.6
>>> measured_number("CC(C)(C)c1cc(/C=C/c2cc(/C=C/c3cc(C(C)(C)C)c(O)c(C(C)(C)C)c3)c([N+](=O)[O-])cc2[N+](=O)[O-])cc(C(C)(C)C)c1O")
-0.15
>>> measured_number("CC1(C)OCC(C2OC(C)(C)OC2C(CO)Nc2ccc([N+](=O)[O-])cc2[N+](=O)[O-])O1 (stereo not drawn)")
21.4
>>> measured_number("CCCNc1ncnc2[nH]ncc12")
-25.9
>>> measured_number("O=C1C(Cc2ccccc2)C(=O)N2c3ccccc3C=CC2N1c1ccccc1 (stereo not drawn)")
13.7
>>> measured_number("CC(C)C1C(O)C23CCC4C(C)(CO)CCCC4(C)C2CC13 (stereo not drawn)")
-6.85
>>> measured_number("COC(=O)C1=C(\\O)C[C@@]2(C)CC[C@@H](C(=O)OC)C2C/C=C\\1C(=O)OC (stereo partly drawn)")
-6.25
>>> measured_number("CC(C)(CS(C)(=O)=O)C(=O)O")
-18.9
>>> measured_number("CCOC(=O)c1cnc2ccc(OC)cc2c1")
0.7

====

Measurement Description: NCI Yeast Anticancer Drug Screen. Data for the mlh1 rad18 strain (AID 175)
Run Parameters: S. cerevisiae mlh1 rad18 strain growth inhibition; at 50.0 µM; stronger effect = higher value
About 79,000 compounds went through this panel and 15% of them were active in at least one assay; those are over-represented in the sample as a whole. Where a SMILES comes first, the peptide text is derived from it. [ ]: non-standard residue; d: D form. The star is where a group is joined. ξ: configuration not given here. Bz = O=C(c1ccccc1)*; Bn = c1ccc(C*)cc1; ξC = NC(CS)C(=O)O
Listing of recorded growth inhibition by entry.
Outcome Measure: growth inhibition (%)

>>> measured_number("C=CNC(=O)NC(=O)CSc1nnc(-c2ccccc2NC(=O)C(F)(F)F)c(=O)[nH]1")
5.4
>>> measured_number("CCOP(=O)(OCC)/C(C#N)=C\\c1ccc(OC(C)=O)cc1")
-31.9
>>> measured_number("NCCN.O=C([O-])CN1CCOCC1.[OH-].[Pt+4]")
-19.9
>>> measured_number("Fc1ccc(NC(=S)NCCN2CCCC2)cc1")
-4.3
>>> measured_number("CCCCCCCC/C=C/CCCCCC1CCCC(C)N1 (configuration not stated)")
-2.55
>>> measured_number("COc1ccc(/C(=N/N)c2ccccc2)cc1")
-2.15
>>> measured_number("CN(C)/C(N)=N\\C(N)=Nc1cc2ccccc2c2ccccc12")
-0.55
>>> measured_number("CC1(CN2CCCCC2)COC(c2ccccc2)(c2ccccc2)OC1")
-0.9
>>> measured_number("O=C(CNC(=O)c1ccccc1)NC(CSCc1ccccc1)C(=O)O (configuration not stated) (Bz-Gly-[ξC](Bn)-OH)")
-1.3
>>> measured_number("C/C(C=C1C(=O)NC(=S)NC1=O)=C\\c1ccccc1")
14.1
>>> measured_number("N#CC(C#N)=C1CCNCC1")
0.9
>>> measured_number("CCCCOc1ccc(/C=C/C(=O)OCC(CC)CCCC)cc1 (configuration not stated)")
-9.05
>>> measured_number("CC(SCc1ccccc1)C(NC(=O)c1ccccc1)C(=O)O (configuration not stated)")
7.55
>>> measured_number("CC(C)=CCC(C)c1ccncc1 (configuration not stated)")
7.4
>>> measured_number("O=[N+]([O-])c1ccc(S(=O)c2ccc([N+](=O)[O-])cc2)cc1")
-4.75
>>> measured_number("CC(C)(C)CC(C)(C)c1cc2c(O)c(c1)Cc1cc(C(C)(C)CC(C)(C)C)cc(c1O)Cc1cc(C(C)(C)CC(C)(C)C)cc(c1O)Cc1cc(C(C)(C)CC(C)(C)C)cc(c1O)Cc1cc(C(C)(C)CC(C)(C)C)cc(c1O)C2")
24.2
>>> measured_number("CC(=O)Nc1ccc(/C=C2\\SC(=S)N(C=C(C#N)C#N)C2=O)cc1")
-2.35
>>> measured_number("Clc1ccc(-c2ncc(-c3ccccc3)o2)c(Cl)c1")
23.2
>>> measured_number("O=P(O)(O)OP(=O)(O)OCC1OC(n2cnc3c(=S)nc[nH]c32)C(O)C1O (configuration not stated)")
2.85
>>> measured_number("C=C(C)Cc1cc(C(CC)C(CC)c2ccc(O)c(CC(=C)C)c2)ccc1O (configuration not stated)")
46
>>> measured_number("C/C(Cl)=N\\OC(=O)Nc1ccc([N+](=O)[O-])cc1")
43.4
>>> measured_number("OC(c1ccccc1)c1ccc2c(c1)CCC2 (configuration not stated)")
5.3
